Origin of the recorded values: ChEMBL document CHEMBL1165959

- assayed-system: Neuronal acetylcholine receptor subunit alpha-7 (Rattus norvegicus, UniProt Q05941)
- Sequence (Q05941 whole entry): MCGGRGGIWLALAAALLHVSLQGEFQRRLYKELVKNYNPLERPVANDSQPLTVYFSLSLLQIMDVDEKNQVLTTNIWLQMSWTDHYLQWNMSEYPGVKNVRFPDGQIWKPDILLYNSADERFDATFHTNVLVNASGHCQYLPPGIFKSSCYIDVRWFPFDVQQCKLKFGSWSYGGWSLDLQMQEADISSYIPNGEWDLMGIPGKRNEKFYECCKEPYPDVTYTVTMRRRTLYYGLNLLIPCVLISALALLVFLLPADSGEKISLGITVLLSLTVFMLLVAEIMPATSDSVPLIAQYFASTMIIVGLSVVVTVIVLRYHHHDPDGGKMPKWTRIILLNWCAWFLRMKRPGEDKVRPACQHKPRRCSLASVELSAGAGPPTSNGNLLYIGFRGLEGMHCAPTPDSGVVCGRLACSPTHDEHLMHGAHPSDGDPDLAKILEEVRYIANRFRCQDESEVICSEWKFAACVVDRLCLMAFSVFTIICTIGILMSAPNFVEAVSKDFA
- test-summary: Displacement of [125I]alpha-Bungarotoxin from alpha7 nAChR in rat cortical membrane
Please go through the items and note down their pKi.
Note on units: pKi is unitless, being -log10 of a concentration expressed in mol/L.

pKi lookup needed for COC1=NOC2CC3CCC(N3)C12 (configuration not stated) , thanks. 4.17

pKi lookup needed for CN1OC2C3CNCC(C3)CC2C1=O (configuration not stated) , thanks. 5.02

pKi lookup needed for BrC1=NOC2CC3CCC(N3)C12 (configuration not stated) , thanks. 3.96

pKi lookup needed for BrC1=NOC2C3CCC(CC12)N3 (configuration not stated) , thanks. 4.70

pKi lookup needed for COC1=NOC2C3CCC(CC12)N3 (configuration not stated) , thanks. 4.55

pKi lookup needed for `O=c1cccc2n1C[C@@H]1CNC[C@H]2C1` , thanks. 6.52

pKi lookup needed for COC1=NOC2CC3CNCC(C3)C12 (configuration not stated) , thanks. 3.77

pKi lookup needed for BrC1=NOC2CC3CNCC(C3)C12 (configuration not stated) , thanks. 4.55

###

Please go through the items and note down their Ki.
- assayed-system: Neuronal acetylcholine receptor; alpha4/beta2 (Rattus norvegicus, UniProt P09483+P12390)
- Sequence (P09483 whole entry): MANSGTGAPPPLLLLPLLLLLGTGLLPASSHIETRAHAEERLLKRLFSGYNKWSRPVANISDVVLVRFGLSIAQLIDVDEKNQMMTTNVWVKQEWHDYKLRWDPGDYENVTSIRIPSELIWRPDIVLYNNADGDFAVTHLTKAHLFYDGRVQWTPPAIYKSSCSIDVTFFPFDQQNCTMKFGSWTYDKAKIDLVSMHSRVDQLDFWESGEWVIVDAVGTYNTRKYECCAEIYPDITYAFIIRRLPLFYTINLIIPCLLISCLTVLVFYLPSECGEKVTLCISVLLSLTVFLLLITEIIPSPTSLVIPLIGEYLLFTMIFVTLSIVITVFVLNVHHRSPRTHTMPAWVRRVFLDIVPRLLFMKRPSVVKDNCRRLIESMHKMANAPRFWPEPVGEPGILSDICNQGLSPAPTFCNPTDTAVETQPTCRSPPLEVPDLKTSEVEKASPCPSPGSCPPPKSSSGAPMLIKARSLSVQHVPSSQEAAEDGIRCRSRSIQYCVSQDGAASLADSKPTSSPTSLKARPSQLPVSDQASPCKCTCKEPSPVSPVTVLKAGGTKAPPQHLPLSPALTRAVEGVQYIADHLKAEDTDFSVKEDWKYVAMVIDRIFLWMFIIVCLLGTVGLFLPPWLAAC
- Sequence (P12390 whole entry): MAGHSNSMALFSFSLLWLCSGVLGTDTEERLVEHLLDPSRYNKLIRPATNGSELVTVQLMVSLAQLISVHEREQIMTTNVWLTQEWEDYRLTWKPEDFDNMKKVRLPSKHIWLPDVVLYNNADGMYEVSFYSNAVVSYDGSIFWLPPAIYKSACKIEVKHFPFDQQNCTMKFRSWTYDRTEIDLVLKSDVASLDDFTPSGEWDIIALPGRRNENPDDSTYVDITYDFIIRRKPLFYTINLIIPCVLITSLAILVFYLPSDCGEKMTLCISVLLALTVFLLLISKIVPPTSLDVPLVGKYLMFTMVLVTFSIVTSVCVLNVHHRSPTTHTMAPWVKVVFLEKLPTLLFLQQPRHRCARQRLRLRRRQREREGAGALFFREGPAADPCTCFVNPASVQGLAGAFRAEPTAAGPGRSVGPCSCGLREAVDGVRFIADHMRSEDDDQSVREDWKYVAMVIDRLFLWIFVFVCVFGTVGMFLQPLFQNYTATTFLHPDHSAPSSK
- test-summary: Displacement of (+/-)-[3H]epibatidine from alpha4beta2 nAChR in rat cortical membrane
A number alone suffices; assume nM.

Ki lookup needed for CN1OC2C3CCC(CC2C1=O)N3 (stereo unspecified) , thanks. 100000

Ki lookup needed for COC1=NOC2CC3CCC(N3)C12 (stereo unspecified) , thanks. 53000

Ki lookup needed for `CC(=O)C1=CC[C@H]2CC[C@@H]1N2` , thanks. 94

Ki lookup needed for `O=c1cccc2n1C[C@@H]1CNC[C@H]2C1` , thanks. 0.4

Ki lookup needed for CN1OC2C3CNCC(C3)CC2C1=O (stereo unspecified) , thanks. 1800

Ki lookup needed for BrC1=NOC2CC3CNCC(C3)C12 (stereo unspecified) , thanks. 920

###

Please go through the items and note down their Ki.
- assayed-system: Neuronal acetylcholine receptor subunit alpha-7 (Rattus norvegicus)
- test-summary: Displacement of [125I]alpha-Bungarotoxin from alpha7 nAChR in rat cortical membrane

Lab request: please report Ki under test system Neuronal acetylcholine receptor subunit alpha-7 (Rattus norvegicus) for `CC(=O)C1=CC[C@H]2CC[C@@H]1N2` > 10 µM

Lab request: please report Ki under test system Neuronal acetylcholine receptor subunit alpha-7 (Rattus norvegicus) for CN1OC2CC3CCC(N3)C2C1=O (centres undefined) > 100 µM

Lab request: please report Ki under test system Neuronal acetylcholine receptor subunit alpha-7 (Rattus norvegicus) for CN1OC2CC3CNCC(C3)C2C1=O (centres undefined) > 100 µM

Lab request: please report Ki under test system Neuronal acetylcholine receptor subunit alpha-7 (Rattus norvegicus) for CN1OC2C3CCC(CC2C1=O)N3 (centres undefined) > 100 µM
